Target: Muscarinic acetylcholine receptor M3 (Rattus norvegicus) (UniProt P08483)
Experiment: rat M3 receptor positive allosteric modulation, dose response, selectivity assay for M4 PAM project, CHO cells, Fluo-4 calcium mobilization (AID 588750)
Conditions: CHO rat M3, Fluo-4 calcium mobilization; series mostly up to 30 µM
The source made the active and inactive calls.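 The calls were made as follows: active = compounds with a dose-dependent response, reported with half-maximal potency and percent of the acetylcholine maximum; inactive = the rest.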
reported property: outcome

[
  {
    "compound": "Cc1nc2sc(C(=O)NCc3cccnc3)c(N)c2c(C)c1Cl",
    "study system": "Muscarinic acetylcholine receptor M3 (Rattus norvegicus) (UniProt P08483)",
    "result value": "inactive"
  },
  {
    "compound": "Cc1nc2sc(C(=O)NCCc3ccncc3)c(N)c2c(C)c1Cl",
    "study system": "Muscarinic acetylcholine receptor M3 (Rattus norvegicus) (UniProt P08483)",
    "result value": "inactive"
  },
  {
    "compound": "Cc1nc2sc(C(=O)NCc3nccs3)c(N)c2c(C)c1Cl",
    "study system": "Muscarinic acetylcholine receptor M3 (Rattus norvegicus) (UniProt P08483)",
    "result value": "inactive"
  },
  {
    "compound": "Cc1nc2sc(C(=O)NC3CC3)c(N)c2c(C)c1Cl",
    "study system": "Muscarinic acetylcholine receptor M3 (Rattus norvegicus) (UniProt P08483)",
    "result value": "inactive"
  },
  {
    "compound": "Cc1nc2sc(C(=O)NCc3ccncn3)c(N)c2c(C)c1Cl",
    "study system": "Muscarinic acetylcholine receptor M3 (Rattus norvegicus) (UniProt P08483)",
    "result value": "inactive"
  }
]

Entry source: PubChem BioAssay AID588750
